Data provenance is patent US20240279318A1.

Target: T1, AFP158/HLA-A*02:01 complex (human)
T1 construct: flowed as analyte in SPR
Experiment: SPR, crude scFv captured, pMHC analyte;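 note: Peptide-MHC complex at several concentrations passed over captured scFv, association then buffer-driven dissociation, on- and off-rates fitted from the curves and KD estimated from them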
RECORDED METRIC: Kd (nM)

• AS170036 VL1VH1-VLH98F (scFv) scFv: QSALTQPRSVSGSPGQSVTISCAGTSSDVGSENYVSWYQQHPGKAPKLMIYQVNKRASGVPDRFSGSKSGNTASLTISGLQAEDEADYYCASYRSSDFNIVFGGGTKLTVLGGGGSGGGGSGGGGSEVQLVESGGGLVQPGGSLRLSCAASGFTFSSYAMSWVRQAPGKGLEWVSTINSGTGSPYYADSVKGRFTISRDNSKNTLYLQMNSLRAEDTAVYYCAKNFFDGSWFLGPPAMDYWGQGTLVTVSSHHHHHH = 74
• AS170036 VL1VH1-VHG56N (scFv) scFv: QSALTQPRSVSGSPGQSVTISCAGTSSDVGSENYVSWYQQHPGKAPKLMIYQVNKRASGVPDRFSGSKSGNTASLTISGLQAEDEADYYCASYRSSDHNIVFGGGTKLTVLGGGGSGGGGSGGGGSEVQLVESGGGLVQPGGSLRLSCAASGFTFSSYAMSWVRQAPGKGLEWVSTINSGTNSPYYADSVKGRFTISRDNSKNTLYLQMNSLRAEDTAVYYCAKNFFDGSWFLGPPAMDYWGQGTLVTVSSHHHHHH = 92
• AS170036 VL1VH1-VHS57R (scFv) scFv: QSALTQPRSVSGSPGQSVTISCAGTSSDVGSENYVSWYQQHPGKAPKLMIYQVNKRASGVPDRFSGSKSGNTASLTISGLQAEDEADYYCASYRSSDHNIVFGGGTKLTVLGGGGSGGGGSGGGGSEVQLVESGGGLVQPGGSLRLSCAASGFTFSSYAMSWVRQAPGKGLEWVSTINSGTGRPYYADSVKGRFTISRDNSKNTLYLQMNSLRAEDTAVYYCAKNFFDGSWFLGPPAMDYWGQGTLVTVSSHHHHHH = 88
• AS170036 VL1VH1-VHG108S (scFv) scFv: QSALTQPRSVSGSPGQSVTISCAGTSSDVGSENYVSWYQQHPGKAPKLMIYQVNKRASGVPDRFSGSKSGNTASLTISGLQAEDEADYYCASYRSSDHNIVFGGGTKLTVLGGGGSGGGGSGGGGSEVQLVESGGGLVQPGGSLRLSCAASGFTFSSYAMSWVRQAPGKGLEWVSTINSGTGSPYYADSVKGRFTISRDNSKNTLYLQMNSLRAEDTAVYYCAKNFFDGSWFLSPPAMDYWGQGTLVTVSSHHHHHH = 96
• AS170036 VL1VH1-VLH98V (scFv) scFv: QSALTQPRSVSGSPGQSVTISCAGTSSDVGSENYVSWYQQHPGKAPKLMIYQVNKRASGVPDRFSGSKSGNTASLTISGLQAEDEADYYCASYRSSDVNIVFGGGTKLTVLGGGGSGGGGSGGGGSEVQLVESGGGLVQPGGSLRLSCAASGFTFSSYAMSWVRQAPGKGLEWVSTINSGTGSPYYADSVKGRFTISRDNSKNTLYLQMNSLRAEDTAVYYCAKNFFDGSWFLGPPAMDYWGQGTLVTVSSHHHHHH = 78
